# measurement target: Sentrin-specific protease 8 (Homo sapiens)
# test description: blockers of SENP8 deneddylase activity – biochemical, fluorescence, Nedd8 protein substrate, uHTS, primary screen (AID 602440)
# measurement setup: recombinant SENP8, Nedd8 substrate fluorescence; at 20 µM
In all, about 360,000 compounds went through this assay and about 2,300 (0.64%) were called active. Rule as the data show it: active = inhibition mostly above about 40% (no sharp cut-off); inactive = mostly below about 27%. The sample as a whole holds a higher share of actives than the screen did.
Possible outcomes: active, inactive

[[record]]
compound = "COCC1CCCN(Cc2cn[nH]c2-c2cc3ccccc3o2)C1 (stereo not given)"
answer_label = "inactive"

[[record]]
compound = "COc1cc(OC)cc(C(=O)NCC(=O)OCc2csc(-c3ccccc3)n2)c1"
answer_label = "inactive"

[[record]]
compound = "Cn1c(N)c(C(=O)COC(=O)C23CC4CC(CC(C4)C2)C3)c(=O)n(C)c1=O"
answer_label = "inactive"

[[record]]
compound = "O=C1CCCC(O)=C1N=Nc1ccc(S(=O)(=O)N2CCOCC2)cc1"
answer_label = "active"

[[record]]
compound = "CC(=O)NC(Cc1ccc(F)cc1)C(=O)O (stereo not given)"
answer_label = "inactive"

[[record]]
compound = "O=C1c2ccccc2-c2ccccc2NC1O (stereo not given)"
answer_label = "inactive"

[[record]]
compound = "Cc1c(CC(=O)N2CCN(C(=O)C3COc4ccccc4O3)CC2)c(=O)oc2c(O)c(O)ccc12 (stereo not given)"
answer_label = "inactive"

[[record]]
compound = "Cc1cc([N+](=O)[O-])c(N2CCC[C@@H]2C(=O)O)c([N+](=O)[O-])c1"
answer_label = "inactive"

[[record]]
compound = "O=C(CCC(=O)OCc1cccc(C(=O)Oc2ccccc2)c1)Nc1cccc2ccccc12"
answer_label = "inactive"

[[record]]
compound = "CN(CC(=O)NNC(=O)CNC(=O)c1ccccc1Cl)S(=O)(=O)c1ccc(Cl)cc1"
answer_label = "inactive"

[[record]]
compound = "Cc1ccc(NC(=O)COC(=O)CN2CCSC2=O)cc1F"
answer_label = "inactive"

[[record]]
compound = "CCN=C1SC(CC(=O)Nc2ccc(C)cc2)C(=O)N1CC (stereo not given)"
answer_label = "active"

[[record]]
compound = "CC1(C)CC(=O)C(N=Nc2ccc(S(=O)(=O)N3CCCCCC3)cc2)=C(O)C1"
answer_label = "active"

[[record]]
compound = "O=C(CCNS(=O)(=O)c1ccccc1)NCCSc1ccc(Br)cc1"
answer_label = "inactive"

[[record]]
compound = "O=C(NCCCc1ccccc1)C1CCC(CNc2c(N3CCCCC3)c(=O)c2=O)CC1 (stereo not given)"
answer_label = "inactive"

[[record]]
compound = "O=C1c2ccccc2C(=O)C1C(=O)C1CC1"
answer_label = "active"

[[record]]
compound = "O=[N+]([O-])c1ccc(N2CCSCC2)cc1O"
answer_label = "active"

[[record]]
compound = "CN=C1SC(CC(=O)Nc2ccc(C(=O)O)cc2)C(=O)N1C (stereo not given)"
answer_label = "inactive"

[[record]]
compound = "O=[N+]([O-])c1ccc(N2CCN(S(=O)(=O)c3ccccc3)CC2)cc1N1CCc2ccccc2C1"
answer_label = "inactive"

[[record]]
compound = "Cc1cc([N+](=O)[O-])c(NC2CCCCC2)c([N+](=O)[O-])c1"
answer_label = "active"

[[record]]
compound = "CC1(C)Cc2cccc(OCC(N)=O)c2O1"
answer_label = "inactive"

[[record]]
compound = "CSCC[C@H](NC(=O)CCCn1nnc2ccccc2c1=O)C(=O)O"
answer_label = "inactive"

[[record]]
compound = "CC(NC(=O)C1CCC(CNc2c(N3CCOCC3)c(=O)c2=O)CC1)c1ccccc1 (stereo not given)"
answer_label = "inactive"

[[record]]
compound = "NN=C(NN=Cc1ccccc1)c1ccccc1"
answer_label = "active"

[[record]]
compound = "Cc1ccc(S(=O)(=O)NC(C)C(=O)Nc2ccccc2C(=O)N2CCCC2)cc1 (stereo not given)"
answer_label = "inactive"

[[record]]
compound = "Cc1ccc(S(=O)(=O)N2CCN(S(=O)(=O)N3CCOCC3)CC2)cc1"
answer_label = "inactive"

[[record]]
compound = "Nc1nnn(CC(=O)N/N=C/c2ccccc2)n1"
answer_label = "inactive"

[[record]]
compound = "O=C1c2ccccc2C(=O)C1c1ccccc1"
answer_label = "inactive"

[[record]]
compound = "Cc1cc(C)cc(NC(=O)NC2CCCCCCC2)c1"
answer_label = "inactive"

[[record]]
compound = "O=c1[nH]n2c(=O)c3c([nH]c2c1N=Nc1ccccc1)CCC3"
answer_label = "active"

[[record]]
compound = "CC(C)c1cc(Cn2c3ccccc3c(=O)n2C(C)Cn2cc(C3CC3)nn2)on1 (stereo not given)"
answer_label = "inactive"

[[record]]
compound = "COc1ccc2[nH]c(=O)c(CN(Cc3cccnc3)S(=O)(=O)c3ccccc3F)cc2c1"
answer_label = "inactive"

[[record]]
compound = "COC(=O)C(C)N=Cc1ccccc1 (stereo not given)"
answer_label = "inactive"

[[record]]
compound = "CC1(C)CC(=O)C(N=Nc2c(F)cccc2F)=C(O)C1"
answer_label = "inactive"

[[record]]
compound = "COc1ccc(NS(=O)(=O)c2cc(NC(=O)CC(=O)c3ccc([N+](=O)[O-])cc3)ccc2C)cc1"
answer_label = "inactive"

